tested on: U-251; test: NCI tumour cell line growth inhibition, 48 h
Activity calls are given as the source filed them. Cut-off read from the data, not from the text of the source: active = GI50 up to about 1.1 µM and inactive = higher.
Attribute measured: GI50

These recorded examples may help you get a feel for the data.
CS/C(=N\c1nccs1)NC(=O)c1cccc(Cl)c1	72.1 µM (inactive)
COc1ccc(/N=N/c2c(-c3c(OC)cc4occc4c3OC)[nH]c(=O)c(C#N)c2C)cc1	> 100 µM (inactive)
COc1ccc(N2/C(=N/c3ccccc3)SC(=N/S(=O)(=O)c3ccccc3)/C2=N\S(=O)(=O)c2ccccc2)cc1	16.7 µM (inactive)
c1ccc(/N=C(\N2CCOCC2)N(CCN2CCOCC2)c2ccccc2)cc1	> 100 µM (inactive)

Could you now look at the following compound, please?
Task: Fill in: GI50 on U-251, entry O=C1N2CCN=C2c2ccccc2C1(O)c1ccccc1 (stereo not given)
Output: > 100 µM (inactive)
